Ref: patent US11535633B2

# system_under_test: hSTING c-terminal domain (purified hSTING aa154-342) (Homo sapiens)
# Construct: Purified hSTING (aa154-342)
# Sequence (Q86WV6 154-342): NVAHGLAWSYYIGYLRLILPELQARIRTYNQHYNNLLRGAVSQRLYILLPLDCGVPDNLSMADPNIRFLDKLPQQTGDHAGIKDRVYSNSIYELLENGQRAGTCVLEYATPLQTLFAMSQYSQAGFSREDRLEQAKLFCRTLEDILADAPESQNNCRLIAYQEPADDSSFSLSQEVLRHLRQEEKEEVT
# assay: Thermal shift assay for measuring the relative binding affinity to hSTING c-terminal domain
# condition_context: Tm of sample minus mean Tm of negative control (buffer, 2% DMSO), SYPRO Orange
endpoint: ΔTm at 100 µM (°C)

molecule	quantity_unit	readout_number
CC=CCC1COc2cc(C(N)=O)cc3nc(NC(=O)c4cc(C)nn4CC)n1c23 (stereo not shown) [Example 5]	°C	2.9
CCn1nc(C)cc1C(=O)Nc1nc2cc(C(N)=O)cc(OC)c2n1CCCCC1COc2cc(C(N)=O)cc3nc(NC(=O)c4cc(C)nn4CC)n1c23 (stereo in doubt) [Example 16]	°C	1

(I) CCn1nc(C)cc1C(=O)Nc1nc2cc(C(N)=O)cc3c2n1CCO3 [Example 2]
(II) C=CC[C@@H]1COc2cc(C(N)=O)cc3nc(NC(=O)c4cc(C)nn4CC)n1c23 [Example 6]
(III) CCn1nc(C)cc1C(=O)Nc1nc2cc(C(N)=O)cc(OCCCN(C)C)c2n1CCC[C@H]1COc2cc(C(N)=O)cc3nc(NC(=O)c4cc(C)nn4CC)n1c23 [Example 24]
(IV) CCn1nc(C)cc1C(=O)Nc1nc2cc(C(N)=O)cc3c2n1[C@@H](CC(O)CO)CO3 (stereo partly shown) [Example 9]
(V) C=CC[C@H]1COc2cc(C(N)=O)cc3nc(NC(=O)c4cc(C)nn4CCC)n1c23 [Example 11]
Input line: Give the ascending ranking of the items by reported ΔTm at 100 µM. Write the labels, ordered according to the request.
Output line: II, IV, I, V, III
